# Test system: c-Src
# procedure text: phosphorylation enrichment, bacterial display (enrichment ratio); higher = better substrate or ligand; peptides without Tyr show the background
Hi all, reminder that labels come from phosphorylation enrichment, split as low band (below 0.4), middle band (0.4 to below 0.7), high band (0.7 or more)

Example entries begin here.
{"sequence string": "CRIELYRIVES [IGFBP1_Y181_V183I]", "assigned label": "middle band"}
{"sequence string": "HKLSFYEFDFE [BTK_Y40_YF]", "assigned label": "high band"}
{"sequence string": "RNFGTYTAGLS [RHBDD1_Y264_D262G_YF]", "assigned label": "middle band"}

Qu. Bin this entry: SLRAHYDTPRS [DOK7_Y405]
Ans. low band

Qu. Place this sequence in its band: TDHLQYFDSNK [ARAP1_Y359_R358Q]
Ans. middle band

Qu. Form: Item = VFGEEYEEQPR [ZMYM2_Y1033] ; Class = ?
Ans. middle band

Qu. Class? Entry: LGEGSYGKVKE [STK11_Y60]
Ans. high band

Qu. Which bin should I file GSSSSCGQHGS [HRNR_Y517_Y517C] under?
Ans. low band

Qu. Looking at ARTNEYKIIRT [INA_Y87] , which class would you pick?
Ans. middle band

Qu. Into which category would you place EEQKKYYNAMK [SCN5A_Y1494] ?
Ans. low band

Qu. Each sequence maps to one class by phosphorylation enrichment. Which class for GFEEAYSVFKK [PAFAH1B1_Y28_YF] ?
Ans. high band

Qu. Into which category would you place FGLQAYTEVKT [ALDH2_Y502_YF] ?
Ans. middle band

----------
# tested on: c-Src SH2
# procedure text: SH2 binding enrichment of the phosphorylated peptide, bacterial display (enrichment ratio); higher = better substrate or ligand; peptides without Tyr show the background
Rule: SH2 binding enrichment under 0.5 gives FALSE, otherwise TRUE.

Some solved cases for reference:
{"sequence string": "APAHKYHGGGG [HBD_Y146_L142P]", "assigned label": "TRUE"}
{"sequence string": "WRRLIYRCQVG [NR2E3_Y81_R76W]", "assigned label": "FALSE"}
{"sequence string": "TTPAVYARVTK [CTRB2_Y246_A250T]", "assigned label": "TRUE"}
{"sequence string": "TVLWWYTGTRP [UGT1A1_Y337_R336W]", "assigned label": "TRUE"}
{"sequence string": "VHNLDYFKETT [FGFR3_Y647_K650E_YF]", "assigned label": "FALSE"}

Qu. Answer whether SH2 binding enrichment of SMEGLYSSTQD [CLIC5_Y111] is greater than or equal to 0.5.
Ans. TRUE

Qu. For this sequence, is measured SH2 binding enrichment 0.5 or higher? TLLERYGMIEI [ACSF3_Y355_T358I]
Ans. TRUE

Qu. State whether the measured SH2 binding enrichment reaches 0.5, counting equality as reaching it, for GGYTCYSDGKK [PROS1_Y266_C267S]
Ans. TRUE

Qu. # check: SH2 binding enrichment of CSDPSYVKQME [CDC5L_Y464_Y459C] is greater than or equal to 0.5
Ans. TRUE

Qu. Is the recorded value of SH2 binding enrichment equal to or greater than 0.5 for this sequence? RDEHGYISRCF [HSPB1_Y133_Q128R]
Ans. FALSE

Qu. Item EGELRYMHSRV [ABCD1_Y281_K276E] with SH2 binding enrichment of 0.5 or above?
Ans. FALSE

Qu. Entry HQIQSYTCEID [DES_Y331] : is its SH2 binding enrichment no less than 0.5?
Ans. TRUE

Qu. Check the entry DPFHVYIKNHV [KCNE3_Y95_R99H_YF] : does SH2 binding enrichment equal or exceed 0.5?
Ans. TRUE

Qu. Identify whether the reported SH2 binding enrichment of the following sequence is 0.5 or greater: HKLSFNEFDFE [BTK_Y40_Y40N_YF]
Ans. FALSE

----------
# tested on: Jak2 (UniProt O60674)
# Sequence (O60674 whole entry, looked up): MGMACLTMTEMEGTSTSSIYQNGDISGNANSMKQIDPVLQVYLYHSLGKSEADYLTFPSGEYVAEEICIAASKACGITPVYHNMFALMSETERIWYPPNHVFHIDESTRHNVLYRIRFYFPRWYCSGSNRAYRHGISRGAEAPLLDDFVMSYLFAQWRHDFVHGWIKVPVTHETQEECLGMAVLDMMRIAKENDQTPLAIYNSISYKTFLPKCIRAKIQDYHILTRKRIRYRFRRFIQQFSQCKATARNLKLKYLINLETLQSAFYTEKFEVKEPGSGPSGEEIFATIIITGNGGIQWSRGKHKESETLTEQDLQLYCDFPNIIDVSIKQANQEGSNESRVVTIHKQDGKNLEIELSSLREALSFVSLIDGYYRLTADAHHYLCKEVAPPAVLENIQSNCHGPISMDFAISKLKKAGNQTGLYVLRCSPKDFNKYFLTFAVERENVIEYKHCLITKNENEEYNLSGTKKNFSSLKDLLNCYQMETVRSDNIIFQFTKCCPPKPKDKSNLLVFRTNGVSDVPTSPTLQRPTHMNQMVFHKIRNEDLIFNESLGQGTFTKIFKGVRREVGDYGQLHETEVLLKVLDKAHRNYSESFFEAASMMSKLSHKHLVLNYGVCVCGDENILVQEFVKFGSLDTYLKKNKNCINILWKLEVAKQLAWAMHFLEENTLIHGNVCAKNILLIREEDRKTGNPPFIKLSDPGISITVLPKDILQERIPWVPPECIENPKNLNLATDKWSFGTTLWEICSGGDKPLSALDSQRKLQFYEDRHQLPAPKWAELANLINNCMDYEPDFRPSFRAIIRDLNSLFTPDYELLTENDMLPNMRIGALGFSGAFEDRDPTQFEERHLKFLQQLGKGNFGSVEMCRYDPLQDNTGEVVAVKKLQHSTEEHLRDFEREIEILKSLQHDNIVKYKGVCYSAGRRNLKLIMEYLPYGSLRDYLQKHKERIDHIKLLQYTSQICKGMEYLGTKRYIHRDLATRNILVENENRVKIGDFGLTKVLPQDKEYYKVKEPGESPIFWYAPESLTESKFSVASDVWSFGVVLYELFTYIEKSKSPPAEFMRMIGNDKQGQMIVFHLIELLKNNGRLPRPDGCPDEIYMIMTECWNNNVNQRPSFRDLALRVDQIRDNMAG
# procedure text: phosphorylation enrichment, bacterial display (enrichment ratio); higher = better substrate or ligand; peptides without Tyr show the background
Listed here: items and their measured phosphorylation enrichment.
Give your answer as a number; write no unit.

Solved entries:
{"sequence string": "VFAPDYIAGVS [NOB1_Y366]", "phosphorylation enrichment": 0.934}
{"sequence string": "KRIKSYNQEND [RPGRIP1L_Y448_L447S]", "phosphorylation enrichment": 0.466}
{"sequence string": "FKGKKYKPLDL [RPL35_Y78_YF]", "phosphorylation enrichment": 0.486}
{"sequence string": "KNNDGNIDFAE [MCFD2_Y135_Y135N_YF]", "phosphorylation enrichment": 1.21}
{"sequence string": "PSQRPYVYYYS [PTEN_Y174_R173P]", "phosphorylation enrichment": 2.58}
{"sequence string": "CTTIHYFFMCN [TP53_Y234_N235Y_YF]", "phosphorylation enrichment": 1.07}

Now, please, on to the next sequence.
Qu. What does the data say about its phosphorylation enrichment? Entry: SDVCMYRKNTY [SYNE2_Y570_I574T]
Ans. 0.67

----------
# tested on: c-Src SH2;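 further: peptide library displayed on the E. coli surface as eCPX fusions, selected cells deep-sequenced, score is each peptide's frequency after selection divided by its frequency in the input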
# procedure text: SH2 binding enrichment of the phosphorylated peptide, bacterial display (enrichment ratio); higher = better substrate or ligand; peptides without Tyr show the background
Binary classification by SH2 binding enrichment, with 0.8 as an inclusive lower bound for YES; all other cases are NO.

Solved entries (count: 10):
{"sequence string": "IIEDPYFGNDF [ACP1_Y132_S137F_YF]", "assigned label": "NO"}
{"sequence string": "DRLASYLDKLR [KRT12_Y139_V143L]", "assigned label": "NO"}
{"sequence string": "CTTIHYNYMWN [TP53_Y234_C238W]", "assigned label": "YES"}
{"sequence string": "PEVSGYCHYAD [TG_Y234_C237Y]", "assigned label": "YES"}
{"sequence string": "IMWDSYTTNKV [GNB3_Y85_V81M]", "assigned label": "NO"}
{"sequence string": "YEPDAYDDLDQ [ELP5_Y302]", "assigned label": "YES"}
{"sequence string": "NFYEYYVDDPP [GCHFR_Y48]", "assigned label": "NO"}
{"sequence string": "SSQAHYRLSAF [ADAMTS9_Y100]", "assigned label": "NO"}
{"sequence string": "KNDSIYVVKGN [KIT_Y823_N822I]", "assigned label": "NO"}
{"sequence string": "SSMNDYNPLEK [MYOC_Y479_I477N]", "assigned label": "NO"}

Qu. Record FKRAVYCIIGR [NUP93_Y391_YF] ; criterion: SH2 binding enrichment no lower than 0.8. Met?
Ans. YES

Qu. Quick check: does PKEQKYSFLQN [GH1_Y68] have SH2 binding enrichment greater than or equal to 0.8?
Ans. YES

Qu. Is the recorded value of SH2 binding enrichment equal to or greater than 0.8 for this sequence? SGPRCYTIAAL [TTR_Y125_R124C]
Ans. NO

Qu. Does SH2 binding enrichment meet or surpass 0.8 for QLPRGYISIPV [BAG3_Y205] ?
Ans. YES

Qu. Decide: SH2 binding enrichment of NTGNYYDLYGG [PTPN11_Y63_D61N] >= 0.8?
Ans. YES

----------
# Test system: Fer (mouse)
# procedure text: phosphorylation enrichment, bacterial display (enrichment ratio); higher = better substrate or ligand; peptides without Tyr show the background
parameter measured: phosphorylation enrichment

Recorded results for 6 sequences are shown here.
{"sequence string": "EREFKYGAHKF [OAT_Y50_N54K_YF]", "tested on": "Fer (mouse)", "phosphorylation enrichment": 0.329}
{"sequence string": "NTGNYYDLYGG [PTPN11_Y63_D61N]", "tested on": "Fer (mouse)", "phosphorylation enrichment": 2.82}
{"sequence string": "KALKQYRAGPS [DDX27_Y763]", "tested on": "Fer (mouse)", "phosphorylation enrichment": 0.389}
{"sequence string": "VGEGPYLLSDL [ABCC12_Y7_I9L]", "tested on": "Fer (mouse)", "phosphorylation enrichment": 0.508}
{"sequence string": "QFKGKYLAKHN [CASK_Y712_D710G_YF]", "tested on": "Fer (mouse)", "phosphorylation enrichment": 0.441}
{"sequence string": "QLQVFYATRDQ [MIPEP_Y579_L582R]", "tested on": "Fer (mouse)", "phosphorylation enrichment": 0.59}

Qu. Give its phosphorylation enrichment value. Item: ATATDYHTTSH [SLC4A1_Y46]
Ans. 0.328

----------
# tested on: FGFR3 (UniProt P22607)
# Sequence (P22607 whole entry, looked up): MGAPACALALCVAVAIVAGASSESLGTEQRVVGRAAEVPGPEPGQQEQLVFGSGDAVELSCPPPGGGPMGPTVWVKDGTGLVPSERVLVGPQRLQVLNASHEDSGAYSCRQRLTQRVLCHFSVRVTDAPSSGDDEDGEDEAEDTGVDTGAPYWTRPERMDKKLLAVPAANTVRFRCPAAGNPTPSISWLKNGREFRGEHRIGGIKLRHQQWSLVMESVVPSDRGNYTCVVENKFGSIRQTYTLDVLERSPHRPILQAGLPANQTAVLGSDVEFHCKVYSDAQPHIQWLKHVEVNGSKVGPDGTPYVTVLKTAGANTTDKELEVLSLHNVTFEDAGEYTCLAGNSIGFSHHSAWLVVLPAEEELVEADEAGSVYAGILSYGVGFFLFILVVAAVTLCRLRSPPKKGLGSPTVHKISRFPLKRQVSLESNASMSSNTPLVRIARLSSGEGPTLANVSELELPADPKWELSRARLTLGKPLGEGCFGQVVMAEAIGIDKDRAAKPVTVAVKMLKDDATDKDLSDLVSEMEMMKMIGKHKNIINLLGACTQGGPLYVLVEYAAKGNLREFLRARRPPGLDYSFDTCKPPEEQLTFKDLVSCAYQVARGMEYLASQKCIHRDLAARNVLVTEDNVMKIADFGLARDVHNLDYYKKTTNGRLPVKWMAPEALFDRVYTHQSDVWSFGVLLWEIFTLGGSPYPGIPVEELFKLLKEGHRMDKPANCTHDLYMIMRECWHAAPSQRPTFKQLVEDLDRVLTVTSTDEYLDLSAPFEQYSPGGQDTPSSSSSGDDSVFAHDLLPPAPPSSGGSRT
# procedure text: phosphorylation enrichment, bacterial display (enrichment ratio); higher = better substrate or ligand; peptides without Tyr show the background
Below, each of the sequences is paired with its reported phosphorylation enrichment value.
Respond numerically, and do not add a unit to the figure.

{"sequence string": "CTTNHYNYMCN [TP53_Y234_I232N]", "phosphorylation enrichment": 0.526}
{"sequence string": "LFIGQYSGKKE [L1CAM_Y1229_S1224L]", "phosphorylation enrichment": 1.13}
{"sequence string": "RLLVVYSWTQR [HBB_Y36_P37S]", "phosphorylation enrichment": 0.91}
{"sequence string": "RKLASYRSCLL [DHX37_Y1080]", "phosphorylation enrichment": 0.617}
{"sequence string": "MSRDIYSTDFF [NTRK1_Y676_YF]", "phosphorylation enrichment": 1.65}
{"sequence string": "CKRQFYLFKGK [RSPO4_Y112_YF]", "phosphorylation enrichment": 0.591}

Qu. What does the data say about its phosphorylation enrichment? Entry: GSRGKCSSGFR [ATM_Y332_Y332C]
Ans. 0.423
